Items are presented alongside their recorded log10 MIC.
Test system: Penicillin(PC)-sensitive S. aureus (5 strains)
assay.procedure: MIC by two-fold serial agar dilution, group Gp-Ia
Type: cell-based
experimental.conditions: Staphylococcus aureus, Gp-Ia (5 strains), Mueller-Hinton agar, read-out: Geometric mean of MIC, Gp-Ia
In plain terms, each number is the log10 of measured MIC in mg/L.

1) C/C=C\C1=C(C(=O)O)N2C(=O)C(NC(=O)/C(=N\OC(C(=O)O)c3ccc(O)c(O)c3)c3csc(N)n3)C2SC1 (centres unmarked) [Ib] ... -0.04

Recorded log10 MIC of C[N+]1(CC2=C(C(=O)[O-])N3C(=O)C(NC(=O)C(=NOC(C(=O)O)c4ccc(O)c(O)c4)c4csc(N)n4)C3SC2)CCCC1 (centres unmarked) [Ia] , please. 0.15

Recorded log10 MIC of Nc1nc(/C(=N/OC(C(=O)O)c2ccc(O)c(O)c2)C(=O)NC2C(=O)N3C(C(=O)[O-])=C(/C=C/C[n+]4ccccc4)CSC23)cs1 (centres unmarked) [Ic] , please. -0.59

Recorded log10 MIC of Nc1nc(/C(=N/OCc2cc(O)c(O)cc2C(=O)O)C(=O)NC2C(=O)N3C(C(=O)[O-])=C(/C=C/C[n+]4ccccc4)CSC23)cs1 (centres unmarked) [Id] , please. -0.21

Recorded log10 MIC of C[N+]1(CC2=C(C(=O)[O-])N3C(=O)C(NC(=O)/C(=N\OC(C(=O)O)c4ccc(O)c(O)c4)c4csc(N)n4)[C@H]3SC2)Cc2cc(O)c(O)cc2C1 (some centres unmarked) [Ie] , please. 0.92
